biological target: LXRα (Homo sapiens); assay: GAL4-LXRα / UAS-luc co-transfection reporter assay in HEK293 cells; format: cell-based; set-up: co-transfecting UAS-reporter and GAL4-LBD of the nuclear receptors LXRα, LXRβ and GR; GAL4 (fusion partner); expressed in transfected cells; host or cells: HEK293 cells; mouse primary hepatocytes; settings: Example 1, T0901317 at EC80 (250 nM), 8 concentrations, read-out: IC50 against LXRα
MEASURE: IC50 (nM)
Write the value in nM as a bare number.

The recorded IC50 for entry Cc1cc(C)c(S(=O)(=O)N(Cc2ccc(-c3cccc(S(C)(=O)=O)c3)cc2)Cc2ccc(C(F)(F)F)o2)c(C)c1 equals 79

---

target: UniProt Q13133; assay: cell-based
MEASURE: pIC50
Give only the number. pIC50 is defined as minus log10 of concentration in molar units.

The recorded pIC50 for entry Cc1cc(C)c(S(=O)(=O)N(Cc2ccc(-c3cccc(S(C)(=O)=O)c3)cc2)Cc2ccc(C(F)(F)F)o2)c(C)c1 equals 6.18

---

Biological target: LXRα (Homo sapiens, UniProt Q13133)
Sequence (Q13133 209-447 limits assumed): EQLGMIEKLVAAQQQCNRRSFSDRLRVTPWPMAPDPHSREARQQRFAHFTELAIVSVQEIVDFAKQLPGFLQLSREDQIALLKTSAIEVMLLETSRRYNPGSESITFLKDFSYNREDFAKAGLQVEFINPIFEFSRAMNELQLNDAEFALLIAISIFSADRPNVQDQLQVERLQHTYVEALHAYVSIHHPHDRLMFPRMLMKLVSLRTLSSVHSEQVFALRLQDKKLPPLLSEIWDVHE
Test: GAL4-LXRα / UAS-luc co-transfection reporter assay in HEK293 cells
Format: cell-based
Set-up: co-transfecting UAS-reporter and GAL4-LBD of the nuclear receptors LXRα, LXRβ and GR; GAL4 (fusion partner); expressed in transfected cells; host or cells: HEK293 cells; mouse primary hepatocytes
Settings: Example 7, T0901317 250 nM, 6 concentrations, read-out: IC50 to inhibit LXRα
MEASURE: pIC50
Give only the number. pIC50 is defined as minus log10 of concentration in molar units.

Assay LXRα (Homo sapiens, UniProt Q13133), sample Cc1cc(C)c(S(=O)(=O)N(Cc2ccc(-c3cccc(S(C)(=O)=O)c3)cc2)Cc2ccc(C(F)(F)F)o2)c(C)c1 , pIC50 read: 7.66

---

Target: LXRβ (Homo sapiens, UniProt P55055)
Sequence (P55055 222-460 limits assumed): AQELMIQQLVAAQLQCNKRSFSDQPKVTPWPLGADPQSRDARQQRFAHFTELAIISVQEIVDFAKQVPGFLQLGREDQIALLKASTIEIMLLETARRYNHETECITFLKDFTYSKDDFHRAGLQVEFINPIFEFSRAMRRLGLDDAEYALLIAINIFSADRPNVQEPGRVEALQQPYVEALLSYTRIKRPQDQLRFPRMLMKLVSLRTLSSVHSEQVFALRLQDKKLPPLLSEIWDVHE
Assay: GAL4-LXRβ / UAS-luc co-transfection reporter assay in HEK293 cells
Assay type: cell-based
Parameters: co-transfecting UAS-reporter and GAL4-LBD of the nuclear receptors LXRα, LXRβ and GR; GAL4 (fusion partner); expressed in transfected cells; host or cells: HEK293 cells; mouse primary hepatocytes
Settings: IC50 to inhibit LXRβ, Example 7, T0901317 100 nM, 6 concentrations
MEASURE: IC50 (nM)
Write the value in nM as a bare number.

The recorded IC50 for entry Cc1cc(C)c(S(=O)(=O)N(Cc2ccc(-c3cccc(S(C)(=O)=O)c3)cc2)Cc2ccc(C(F)(F)F)o2)c(C)c1 [GSK2033] equals 6.44

---

biological target: LXRβ (Homo sapiens, UniProt P55055); assay: GAL4-LXRβ / UAS-luc transfection assay in mouse primary hepatocytes
MEASURE: IC50 (nM)
Write the value in nM as a bare number.

The recorded IC50 for entry Cc1cc(C)c(S(=O)(=O)N(Cc2ccc(-c3cccc(S(C)(=O)=O)c3)cc2)Cc2ccc(C(F)(F)F)o2)c(C)c1 equals 292

These measurements were taken from patent US9428753B2.
